- experimental_target: purified rabbit 20S proteasome (Oryctolagus cuniculus)
- Sequence (G1T4Q9 60-263): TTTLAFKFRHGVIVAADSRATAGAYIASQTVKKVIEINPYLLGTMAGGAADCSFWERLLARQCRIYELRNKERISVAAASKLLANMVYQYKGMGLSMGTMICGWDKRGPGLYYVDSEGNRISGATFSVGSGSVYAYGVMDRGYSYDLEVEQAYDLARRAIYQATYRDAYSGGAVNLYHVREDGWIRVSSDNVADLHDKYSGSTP
- protocol: Inhibition of chymotrypsin-like activity of purified 20S proteasome
- Type: biochemical
- experimental_setup: purified 20S proteasome, concentration not stated
reported_endpoint: proteasomal inhibition (in words)

{"smiles_str": "CC(=O)Oc1cc(OC(C)=O)cc(C(=O)O[C@H]2Cc3ccccc3C[C@H]2OC(C)=O)c1", "reported_endpoint": "proteasomal inhibition (in words)", "value_observed": "none"}
{"smiles_str": "CC(=O)Oc1cc(C(=O)O[C@H]2Cc3ccccc3C[C@H]2OC(C)=O)cc(OC(C)=O)c1OC(C)=O", "reported_endpoint": "proteasomal inhibition (in words)", "value_observed": "none"}
{"smiles_str": "CC(=O)Oc1cc(OC(C)=O)c2c(c1)O[C@H](c1cc(OC(C)=O)c(OC(C)=O)c(OC(C)=O)c1)[C@H](OC(=O)c1cc(OC(C)=O)c(OC(C)=O)c(OC(C)=O)c1)C2", "reported_endpoint": "proteasomal inhibition (in words)", "value_observed": "none"}
